- Test system: U2OS
- assayName: Multiplex assay against U2OS
- Type: toxicity, cell-based
- conditions: human, 24 h, 10 µM, compound concentration 10 uM, replicate 2
Outcome: fulfilled for Population Tubulin-Different-Phenotype (%) of at least 60%; not fulfilled for anything lower.

* Cc1cc(C)cc(-c2cnc3cc(Cl)c(-c4cccc(O)c4)cc3c2OCCCN)c1 | not fulfilled
* CNc1nc(NCc2ccc(NS(C)(=O)=O)cc2Cl)cc(-c2ccccn2)n1 | not fulfilled
* COc1cc2nccc(Oc3ccc(NC(=O)Nc4cc(C)on4)c(Cl)c3)c2cc1OC.O | fulfilled
* OC1(c2ccc(Cl)cc2)CCN(Cc2c[nH]c3ccccc23)CC1 | not fulfilled
* Cn1cc(-c2[nH]c3cc(NC(=O)[C@H](N)C4CCCCC4)cc4c3c2C=NNC4=O)cn1 | not fulfilled

From: ChEMBL document CHEMBL4689842
